Known ka of a selection of molecules
experimental.system: T1, human IL-22 (Homo sapiens, UniProt Q9GZX6)
T1 sequence (Q9GZX6 34-179): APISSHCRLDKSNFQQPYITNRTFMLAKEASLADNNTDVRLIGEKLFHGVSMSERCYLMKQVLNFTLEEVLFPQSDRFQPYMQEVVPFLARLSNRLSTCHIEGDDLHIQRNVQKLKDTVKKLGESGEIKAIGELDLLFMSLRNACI
procedure.details: SPR capture assay, affinity to human IL-22
Format: binding
condition.details: human IL-22, SPR
Form field: result (number plus unit)

// ka lookup, molecule = CPS04: mutant anti-IL-22 antibody binding human and mouse IL-22; light chain LC-07, heavy chain HC-09 (antibody, V domains shown) VH: QVQLVQSGAEVKKPGASVKVSCKASGYIFRSYWIHWIRQPPGKGLEWIGRIYPGTGNTYYNRKFKGRVTISADKSISTAYLQWSSLKASDTAMYYCARSYDSSVAYWGQGTLVTVSS VL: AIQLTQSPSSLSASVGDRVTITCSASSSVSYMHWYLQKPGQSPQLLIYKTSKLLSGVPSRFSGSGSGTDFTFTISSLEAEDAATYYCQQWSSNPYITFGQGTKVEIKR , result: 1.28e+06 M·s

Consider the record given below.
// ka lookup, molecule = CPS09: mutant anti-IL-22 antibody binding human and mouse IL-22; light chain LC-04, heavy chain HC-25 (antibody, V domains shown) VH: QVQLVQSGAEVKKPGASVKVSCKASGYIFRSYWIHWIRQPPGKGLEWIGRIYPGTGRTYYNEKFKGRVTISADKSISTAYLQWSSLKASDTAMYYCARSYDYSVAYWGQGTLVTVSS VL: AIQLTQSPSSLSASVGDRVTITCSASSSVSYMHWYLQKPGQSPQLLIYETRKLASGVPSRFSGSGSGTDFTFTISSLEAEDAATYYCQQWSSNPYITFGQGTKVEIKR , result: 860000 M·s
